System: bone resorption (skullcaps of new-born mice)
Test Name: Test of mouse calvarium: bone resorption by release of 45Ca from skullcaps of new-born mice, ex-vivo
Condition Description: Mus musculus, inhibition of bone resorption (45Ca release) in half-calvaria, 48 hours contact, read-out: Mouse cavarium % inhibition at 10 μM
Endpoint Label: inhibition at 10 µM (%)
Numbers only, in %.

Consider the reported inhibition at 10 µM for these compounds:
COc1c(OCCC(NC(=O)OCc2ccccc2)C(=O)O)cc2c(c1OC)C1=C(CCC1)C(=NNC1=NCCCN1)CC2 (racemic)	30
COc1c(OCC(=O)C(C)(C)CC(=O)O)cc2c(c1OC)C1=C(CCC1)C(=NNC1=NCCN1)CC2 [EX. 10]	8
COc1c(OCCC(NS(=O)(=O)c2cccc3cccnc23)C(=O)O)cc2c(c1OC)C1=C(CCC1)C(=NNC1=NCCN1)CC2 (racemic) [EX. 28]	27

For each entry beneath this line, provide reported inhibition at 10 µM.
1. O=C(O)CCCOc1ccc2c(c1)C1=C(CCC1)C(=NNC1=NCCN1)CC2 [EX. 20]
2. COc1c(OCCCC(=O)O)cc2c(c1OC)C1=C(CCC1)C(=NNC1=NCCCN1)CC2 [EX. 12]

11
12
